# Target entity: T1, CD19 antigen on Daudi lymphoma cells (human, UniProt P15391 20-556)
# T1 construct: whole, on cells; also called Daudi cells
# T1 sequence (looked up): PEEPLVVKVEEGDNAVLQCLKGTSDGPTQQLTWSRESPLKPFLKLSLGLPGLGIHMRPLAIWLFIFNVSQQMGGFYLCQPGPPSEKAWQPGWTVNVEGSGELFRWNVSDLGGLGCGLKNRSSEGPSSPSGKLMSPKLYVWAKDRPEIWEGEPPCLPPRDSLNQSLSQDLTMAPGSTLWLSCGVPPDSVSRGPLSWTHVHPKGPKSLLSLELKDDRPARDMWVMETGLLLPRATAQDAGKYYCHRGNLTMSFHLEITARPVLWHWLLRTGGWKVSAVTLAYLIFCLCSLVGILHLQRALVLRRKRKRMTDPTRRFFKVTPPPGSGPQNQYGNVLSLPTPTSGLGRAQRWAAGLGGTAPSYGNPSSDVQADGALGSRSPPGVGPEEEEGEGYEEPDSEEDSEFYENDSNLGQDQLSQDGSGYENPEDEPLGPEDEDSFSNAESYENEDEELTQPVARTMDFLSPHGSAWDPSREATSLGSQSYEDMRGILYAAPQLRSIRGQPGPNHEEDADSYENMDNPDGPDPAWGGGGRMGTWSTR
# Protocol notes: FACS competition on Daudi cells; unlabeled antibody 200 ng/ml (2x) vs competitor biotin-B4 VH0/VK0 100 ng/ml
Measurement kind: % inhibition of labeled B4 binding (%)
Express it in %; write the number only.

- Binder: "B4 VHv2/VKv2 antibody (antibody, V domains shown) VH: QVQLQQPGAEVVKPGASVRLSCKTSGYTFTSNWMHWVKQRPGQGLEWIGEIDPSDSYTNYNQKFKGKAELTVDKSSSTAYMEVSDLTSEDSAVYYCARGSNPYYYAMDYWGQGTSVTVSS VL: DIVLTQSPATLSASPGEKVTMTCSASSGVNYMHWYQQKPGTSPKRWIYDTSKLDSGVPARFSGSGSGTSYSLTISSMEAEDAATYYCHQRGSYTFGGGTKLEIK"
  Measurement kind: "% inhibition of labeled B4 binding"
  Observed value: 32

What measured % inhibition of labeled B4 binding goes with B4 VHv3/VKv3 antibody (antibody, V domains shown) VH: QVQLEQPGAEVKKPGASVKVSCKASGYTFTSNWMHWVKQRPGQGLEWIGEIDPSDSYTNYNQKFKGKAKLTVDKSSSTAYMEVSDLTAEDSAVYYCARGSNPYYYAMDYWGQGTSVTVSS VL: QIVLTQSPATLSASPGEKATMTCSASSGANYMHWYQQKPGTSPKRWIYDTSKLASGVPARFSGSGSGTSYSLTIESMEAEDAATYYCHQRGSYTFGGGTKLEIK ? 36

What measured % inhibition of labeled B4 binding goes with B4 VHv2/VKv1 antibody (antibody, V domains shown) VH: QVQLQQPGAEVVKPGASVRLSCKTSGYTFTSNWMHWVKQRPGQGLEWIGEIDPSDSYTNYNQKFKGKAELTVDKSSSTAYMEVSDLTSEDSAVYYCARGSNPYYYAMDYWGQGTSVTVSS VL: QIALTQEPAIMSASPGEKVTMTCSASSGVNYMHWYQQKPGTSPKRWIYDTSKLDSGVPARFSGSGSGTSYSLTISSMEAEDAATYYCHQRGSYTFGGGTKLEIK ? 28

What measured % inhibition of labeled B4 binding goes with B4 VHv1/VKv2 antibody (antibody, V domains shown) VH: QVQLQQPGAEVVKPGASVRLSCETSGYTFTSNWMHWVKQRPDQGLEWIGEIDPSDSYTNYNQKFKGKAELTVDKSSSTAYMEVSDLTSEDSAVYYCARGSNPYYYAMDYWGQGTSVTVSS VL: DIVLTQSPATLSASPGEKVTMTCSASSGVNYMHWYQQKPGTSPKRWIYDTSKLDSGVPARFSGSGSGTSYSLTISSMEAEDAATYYCHQRGSYTFGGGTKLEIK ? 32

What measured % inhibition of labeled B4 binding goes with B4 VHv3/VKv4 antibody (antibody, V domains shown) VH: QVQLEQPGAEVKKPGASVKVSCKASGYTFTSNWMHWVKQRPGQGLEWIGEIDPSDSYTNYNQKFKGKAKLTVDKSSSTAYMEVSDLTAEDSAVYYCARGSNPYYYAMDYWGQGTSVTVSS VL: QIVLTQSPATLSASPGEKATMTCSASSGVNYMHWYQQKPGTSPKRWIYDTDKTASGVPARFSGSGSGTSYSLTISSMEAEDAATYYCHQRGSYTFGGGTKLEIK ? 36
